read-out: Interleukin 6 Receptor (IL6R), IL6R (gene 3570); test: LTEA_HepaRG_IL6R: Life Technologies and Expression Analysis (LTEA) Assay for Interleukin 6 Receptor (IL6R) using HepaRG (AID 2283510); conditions: mRNA level, 48 h; actives raise or lower the signal
The source made the active and inactive calls. The calls were made as follows: active = hit-call score of the fitted dose curve at least 0.9, where 1 is the maximum; inactive = score below 0.9.
Select the matching outcome among yes (1) for active, no (0) for inactive

Lookup: What is the recorded call for this compound in the test? `CC(=O)CC(C)(C)O`
Found: no (0)

Lookup: Status in this test for `CN(C)C=O` ?
Found: no (0)

Lookup: Hi, do you know how `OC1CCCCC1` came out in this test?
Found: no (0)

Lookup: Fill in: this test's call for `CC(C)(C)c1ccc(O)c(C(C)(C)C)c1` is ___
Found: no (0)

Lookup: Returns: the outcome recorded for `Cc1cc(CCN2CCN(c3nsc4ccccc34)CC2)cc2c1NC(=O)CC2(C)C` in this assay.
Found: yes (1)

Lookup: Lab log entry: `Nc1cccc2c(N)cccc12` — outcome as called in the assay?
Found: no (0)

Lookup: For `CCN(CC)CCNc1ccc(CNC=O)c2sc3ccc(OC)cc3c(=O)c12` , what call appears in the results of this test?
Found: yes (1)

* * *

biological target: human Phosphodiesterase 4A1 (PDE4A1), PDE4A (gene 5141); assay: NVS_ENZ_hPDE4A1: NovaScreen (NVS) Enzymatic Assay for human Phosphodiesterase 4A1 (PDE4A1) (AID 2283191)
Records with an inconclusive call do not appear. Active and inactive are the calls of the source. Rule for the calls: active = hit-call score of the fitted dose curve at least 0.9, where 1 is the maximum; inconclusive = response in the unintended direction; inactive = score below 0.9.
Please reply with one of these outcomes: active, inactive

Lookup: Call for entry `NC(=O)N(O)[C@@H]1C=C[C@H](Oc2cccc(Oc3ccc(F)cc3)c2)C1` :
Found: active

Lookup: Outcome? `Cc1cc(CCN2CCN(c3nsc4ccccc34)CC2)cc2c1NC(=O)CC2(C)C`
Found: inactive

Lookup: What did the test return for `c1ccc2cc3c(ccc4ccccc43)cc2c1` ?
Found: inactive

Lookup: Test call, this compound: `O=C(O)Cc1cc(I)c(Oc2cc(I)c(O)c(I)c2)c(I)c1`
Found: active

Lookup: Name the outcome recorded for CCc1nn(C2CCCCC2)c2cc(C3(C#N)CCC(C(=O)O)CC3)ccc12 (stereo not given) in the assay.
Found: active

* * *

read-out: Interleukin-8 (IL8), CXCL8 (gene 3576); test: BSK_KF3CT_IL8: BioMAP Diversity Plus: KF3CT Assay for Interleukin-8 (IL8) Biomarker Activity (AID 2284254); conditions: primary human keratinocytes with fibroblasts
Active and inactive are the calls of the source. The calls were made as follows: active = hit-call score of the fitted dose curve at least 0.9, where 1 is the maximum; inactive = score below 0.9.
Hello, when you answer, please use one of the following outcomes: True = active, False = inactive

Lookup: Could you check what this test reported for `FC(F)(I)C(F)(F)C(F)(F)C(F)(F)C(F)(F)C(F)(F)I` ?
Found: True

Lookup: Record lookup: outcome of this test for `OCCC(F)(F)C(F)(F)C(F)(F)C(F)(F)C(F)(F)C(F)(F)F` ?
Found: False

Lookup: What call does the record list for `C[C@@H]1C[C@H]2[C@@H]3CCC4=CC(=O)C=C[C@]4(C)[C@@]3(F)[C@@H](O)C[C@]2(C)[C@@]1(O)C(=O)COP(=O)(O)O` ?
Found: False

Lookup: Entry `OCCC(F)(F)C(F)(F)C(F)(F)C(F)(F)C(F)(F)C(F)(F)C(F)(F)C(F)(F)F` : call = ?
Found: False
